# TARGET: ryanodine receptor (skeletal sarcoplasmic reticulum membrane vesicles) (Oryctolagus cuniculus, UniProt P11716)
# Construct: skeletal sarcoplasmic reticulum membrane vesicles; from tissue; host or cells: skeletal muscle sarcoplasmic reticulum membrane vesicles
# Sequence (P11716 whole entry): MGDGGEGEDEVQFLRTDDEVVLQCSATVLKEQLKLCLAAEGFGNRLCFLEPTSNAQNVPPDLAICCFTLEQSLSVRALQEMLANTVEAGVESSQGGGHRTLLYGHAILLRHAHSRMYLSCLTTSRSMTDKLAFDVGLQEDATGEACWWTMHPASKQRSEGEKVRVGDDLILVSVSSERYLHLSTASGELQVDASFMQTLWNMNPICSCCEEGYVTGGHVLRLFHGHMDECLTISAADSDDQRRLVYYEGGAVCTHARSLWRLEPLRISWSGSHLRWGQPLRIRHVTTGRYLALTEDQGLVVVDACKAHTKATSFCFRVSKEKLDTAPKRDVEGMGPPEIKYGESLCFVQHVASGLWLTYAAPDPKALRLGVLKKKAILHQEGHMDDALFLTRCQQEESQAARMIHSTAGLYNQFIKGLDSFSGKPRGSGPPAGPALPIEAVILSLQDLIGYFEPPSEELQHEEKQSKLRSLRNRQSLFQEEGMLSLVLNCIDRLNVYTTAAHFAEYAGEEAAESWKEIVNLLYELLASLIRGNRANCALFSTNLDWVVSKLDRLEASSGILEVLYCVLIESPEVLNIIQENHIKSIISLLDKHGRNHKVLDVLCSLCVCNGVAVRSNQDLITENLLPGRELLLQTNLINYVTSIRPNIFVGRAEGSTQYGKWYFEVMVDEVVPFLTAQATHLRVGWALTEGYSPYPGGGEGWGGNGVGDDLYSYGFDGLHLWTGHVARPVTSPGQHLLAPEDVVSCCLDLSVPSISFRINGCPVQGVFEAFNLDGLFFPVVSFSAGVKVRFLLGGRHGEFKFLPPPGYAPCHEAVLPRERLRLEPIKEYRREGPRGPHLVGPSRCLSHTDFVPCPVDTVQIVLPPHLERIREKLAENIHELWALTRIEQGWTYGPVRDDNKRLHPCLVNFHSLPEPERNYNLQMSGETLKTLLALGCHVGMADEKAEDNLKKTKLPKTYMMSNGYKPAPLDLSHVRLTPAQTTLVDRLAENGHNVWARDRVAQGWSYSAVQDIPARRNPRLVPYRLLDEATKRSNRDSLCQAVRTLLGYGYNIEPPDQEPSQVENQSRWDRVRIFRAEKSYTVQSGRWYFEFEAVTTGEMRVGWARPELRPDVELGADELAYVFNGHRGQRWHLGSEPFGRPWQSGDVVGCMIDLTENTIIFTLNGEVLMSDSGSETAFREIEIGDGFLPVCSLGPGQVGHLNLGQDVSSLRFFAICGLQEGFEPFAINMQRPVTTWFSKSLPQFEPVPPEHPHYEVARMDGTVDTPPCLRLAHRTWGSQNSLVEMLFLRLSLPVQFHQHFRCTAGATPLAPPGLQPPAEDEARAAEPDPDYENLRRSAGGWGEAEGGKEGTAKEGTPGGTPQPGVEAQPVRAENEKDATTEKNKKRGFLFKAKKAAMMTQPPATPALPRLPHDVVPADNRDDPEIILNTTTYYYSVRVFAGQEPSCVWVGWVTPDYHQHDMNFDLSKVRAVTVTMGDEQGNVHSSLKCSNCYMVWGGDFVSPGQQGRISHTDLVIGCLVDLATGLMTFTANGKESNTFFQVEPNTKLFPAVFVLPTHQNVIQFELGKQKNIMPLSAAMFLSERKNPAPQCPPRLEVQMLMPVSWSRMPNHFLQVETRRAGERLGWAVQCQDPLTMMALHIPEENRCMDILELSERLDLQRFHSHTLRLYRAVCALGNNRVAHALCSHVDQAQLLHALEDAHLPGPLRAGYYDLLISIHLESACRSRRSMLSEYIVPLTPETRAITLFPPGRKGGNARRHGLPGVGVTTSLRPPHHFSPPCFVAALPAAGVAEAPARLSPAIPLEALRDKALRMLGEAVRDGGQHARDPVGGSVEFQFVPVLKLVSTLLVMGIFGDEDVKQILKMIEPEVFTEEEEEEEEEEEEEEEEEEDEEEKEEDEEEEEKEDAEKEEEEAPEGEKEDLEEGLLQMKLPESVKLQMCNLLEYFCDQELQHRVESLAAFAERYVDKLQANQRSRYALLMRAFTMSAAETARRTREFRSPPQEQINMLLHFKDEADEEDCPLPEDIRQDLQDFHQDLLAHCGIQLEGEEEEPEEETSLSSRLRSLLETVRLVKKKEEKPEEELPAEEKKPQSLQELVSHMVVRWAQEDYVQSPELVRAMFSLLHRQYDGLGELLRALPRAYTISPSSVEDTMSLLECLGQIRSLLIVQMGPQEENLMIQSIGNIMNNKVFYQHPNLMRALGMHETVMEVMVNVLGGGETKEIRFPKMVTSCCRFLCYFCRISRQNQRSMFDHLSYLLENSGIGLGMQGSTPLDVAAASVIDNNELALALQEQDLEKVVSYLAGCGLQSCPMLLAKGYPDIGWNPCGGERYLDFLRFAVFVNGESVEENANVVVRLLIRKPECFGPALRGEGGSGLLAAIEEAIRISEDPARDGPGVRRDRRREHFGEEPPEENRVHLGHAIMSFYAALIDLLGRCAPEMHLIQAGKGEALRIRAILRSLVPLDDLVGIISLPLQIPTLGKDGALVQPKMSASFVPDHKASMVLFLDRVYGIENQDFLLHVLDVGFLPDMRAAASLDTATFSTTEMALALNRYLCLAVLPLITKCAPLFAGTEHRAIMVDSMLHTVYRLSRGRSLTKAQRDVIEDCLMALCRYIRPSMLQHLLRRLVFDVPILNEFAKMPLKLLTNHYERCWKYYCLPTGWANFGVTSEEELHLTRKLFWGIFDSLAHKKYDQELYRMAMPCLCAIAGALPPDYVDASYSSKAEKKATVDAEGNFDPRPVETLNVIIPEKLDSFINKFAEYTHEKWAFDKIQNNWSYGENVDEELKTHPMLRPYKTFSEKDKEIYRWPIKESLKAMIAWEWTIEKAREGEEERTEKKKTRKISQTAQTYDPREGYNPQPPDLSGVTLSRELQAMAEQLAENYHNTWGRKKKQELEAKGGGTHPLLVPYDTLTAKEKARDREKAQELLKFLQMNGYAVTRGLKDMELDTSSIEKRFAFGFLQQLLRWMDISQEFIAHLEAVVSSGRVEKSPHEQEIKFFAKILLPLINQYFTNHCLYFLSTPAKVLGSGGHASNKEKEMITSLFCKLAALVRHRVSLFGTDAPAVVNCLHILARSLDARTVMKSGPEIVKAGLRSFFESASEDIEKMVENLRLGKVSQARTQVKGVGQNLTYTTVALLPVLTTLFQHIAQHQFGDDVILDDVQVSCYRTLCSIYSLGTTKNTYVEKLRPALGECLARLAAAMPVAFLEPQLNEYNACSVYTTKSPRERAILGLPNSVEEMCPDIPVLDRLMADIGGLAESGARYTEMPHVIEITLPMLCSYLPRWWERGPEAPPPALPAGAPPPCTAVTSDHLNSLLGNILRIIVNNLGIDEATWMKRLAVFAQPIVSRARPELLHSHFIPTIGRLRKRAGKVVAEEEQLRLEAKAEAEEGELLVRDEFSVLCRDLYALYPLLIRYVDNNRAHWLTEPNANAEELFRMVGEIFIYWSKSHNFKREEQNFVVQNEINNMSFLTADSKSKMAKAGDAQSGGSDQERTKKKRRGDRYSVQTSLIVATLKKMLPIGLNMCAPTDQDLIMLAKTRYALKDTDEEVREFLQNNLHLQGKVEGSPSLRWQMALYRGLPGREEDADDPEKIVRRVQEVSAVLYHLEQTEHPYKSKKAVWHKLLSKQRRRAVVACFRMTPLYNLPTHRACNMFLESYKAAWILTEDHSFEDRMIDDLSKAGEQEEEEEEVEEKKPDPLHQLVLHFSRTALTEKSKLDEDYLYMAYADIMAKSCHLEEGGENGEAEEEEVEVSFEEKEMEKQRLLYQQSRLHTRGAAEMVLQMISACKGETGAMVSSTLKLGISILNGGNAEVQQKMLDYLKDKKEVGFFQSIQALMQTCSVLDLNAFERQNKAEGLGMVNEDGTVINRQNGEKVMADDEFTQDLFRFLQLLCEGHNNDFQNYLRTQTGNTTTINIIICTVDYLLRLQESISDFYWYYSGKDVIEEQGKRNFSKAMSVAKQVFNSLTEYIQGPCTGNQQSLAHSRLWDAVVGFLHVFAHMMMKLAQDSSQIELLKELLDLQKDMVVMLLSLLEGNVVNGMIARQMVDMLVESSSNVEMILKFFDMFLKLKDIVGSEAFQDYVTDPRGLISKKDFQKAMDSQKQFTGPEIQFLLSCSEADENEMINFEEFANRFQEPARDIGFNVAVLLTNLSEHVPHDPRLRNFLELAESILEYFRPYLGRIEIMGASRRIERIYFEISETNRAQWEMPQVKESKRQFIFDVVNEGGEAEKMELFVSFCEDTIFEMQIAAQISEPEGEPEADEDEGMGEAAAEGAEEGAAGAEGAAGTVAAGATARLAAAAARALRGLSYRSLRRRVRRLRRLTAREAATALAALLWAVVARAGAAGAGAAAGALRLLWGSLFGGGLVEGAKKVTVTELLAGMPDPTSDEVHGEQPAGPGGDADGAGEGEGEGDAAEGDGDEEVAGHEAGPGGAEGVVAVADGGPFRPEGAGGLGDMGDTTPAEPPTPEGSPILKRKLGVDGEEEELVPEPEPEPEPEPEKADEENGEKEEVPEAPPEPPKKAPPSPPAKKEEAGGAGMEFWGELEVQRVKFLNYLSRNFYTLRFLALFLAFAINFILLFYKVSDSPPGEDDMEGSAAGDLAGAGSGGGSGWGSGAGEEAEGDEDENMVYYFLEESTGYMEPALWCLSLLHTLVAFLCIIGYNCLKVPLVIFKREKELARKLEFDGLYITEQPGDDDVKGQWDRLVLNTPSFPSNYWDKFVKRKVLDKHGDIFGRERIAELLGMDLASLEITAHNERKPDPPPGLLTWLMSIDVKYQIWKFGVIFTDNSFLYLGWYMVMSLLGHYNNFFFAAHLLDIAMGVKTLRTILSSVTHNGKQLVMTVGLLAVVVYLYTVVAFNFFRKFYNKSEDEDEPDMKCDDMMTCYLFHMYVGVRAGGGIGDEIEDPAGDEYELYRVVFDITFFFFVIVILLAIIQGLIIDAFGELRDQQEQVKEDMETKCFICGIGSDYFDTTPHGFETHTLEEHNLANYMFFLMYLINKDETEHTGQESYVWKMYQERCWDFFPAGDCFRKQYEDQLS
# PROTOCOL TEXT: biochemical
# Assay type: binding
# CONDITION DESCRIPTION: first embodiment; read-out: IC50
ASSAY READOUT: pIC50
Kindly note that pIC50 refers to -log10 of the concentration in mol/L and answer with the value alone.

Example molecules with recorded pIC50:
{"columns": ["MOLECULE", "pIC50"],
 "data": [
  ["C=C1CCC2(O)C3(C)CC4(O)OC2(C1OC(=O)CCNC(=O)c1ccc(OCCCC)cc1)C1(O)C3(O)C(OC(=O)c2ccc[nH]2)C(O)(C(C)C)C41C (centres unmarked) [XIII]", 7.69],
  ["CC1=C(C(C)C)C(OC(=O)c2ccc[nH]2)C2(O)C3(C)CC(=O)OC4(C(OC(=O)CCN)C(C)CCC34O)C12O (stereo not drawn) [V-I, O10eq -β-Alanyl-Anhydroryanodine]", 6.97],
  ["CC1CCC2(O)C3(C)CC4(O)OC2(C1OC(=O)CCNC(=O)c1cc(N=[N+]=[N-])ccc1[N+](=O)[O-])C1(O)C3(O)C(OC(=O)c2ccc[nH]2)C(O)(C(C)C)C41C (centres unmarked) [VI]", 7.44],
  ["CC1CCC2(O)C3(C)CC4(O)OC2(C1OC(=O)CCN)C1(O)C3(O)C(OC(=O)c2ccc[nH]2)C(O)(C(C)C)C41C (stereo not drawn) [V-II, O10eq -β-Alanyl-Ryanodine]", 8.55],
  ["CC1=CC(C)=[N+]2C1=Cc1ccc(CCC(=O)NCCC(=O)OC3C(C)CCC4(O)C5(C)CC6(O)OC34C3(O)C5(O)C(OC(=O)c4ccc[nH]4)C(O)(C(C)C)C63C)n1[B-]2(F)F (centres unmarked) [XV]", 7.39]
]}

The molecule identified as C=C1CCC2(O)C3(C)CC4(O)OC2(C1OC(=O)CCNC(=O)c1ccc(I)cc1)C1(O)C3(O)C(OC(=O)c2ccc[nH]2)C(O)(C(C)C)C41C (stereo not drawn) [XII, p-Iodobenzoyl-β-alanyl-dehydroryanodine] registered its pIC50 at 7.80

Lab book: pIC50 of CC1CCC2(O)C3(C)CC4(O)OC2(C1OC(=O)CCNC(=O)CCCCC1SCC2NC(=O)NC21)C1(O)C3(O)C(OC(=O)c2ccc[nH]2)C(O)(C(C)C)C41C (stereo not drawn) [XIV, O10eq -N-Biotinlyl-β-Alanyl-Ryanodine] noted as 7.19

###

# TARGET: ryanodine receptor (skeletal sarcoplasmic reticulum membrane vesicles) (Oryctolagus cuniculus, UniProt P11716)
# Construct: skeletal sarcoplasmic reticulum membrane vesicles; from tissue; host or cells: skeletal muscle sarcoplasmic reticulum membrane vesicles
# PROTOCOL TEXT: biochemical
# Assay type: binding
# CONDITION DESCRIPTION: Table I; mean ± standard deviation of replicates; read-out: KD
ASSAY READOUT: pKd
The scale used: pKd is minus the common logarithm of the concentration in molar units.

{"columns": ["COMPOUND", "pKd"],
 "data": [
  ["C=C1CCC2(O)C3(C)CC4(O)OC2(C1OC(=O)CCNC(=O)C12CC5CC(CC(C5)C1)C2)C1(O)C3(O)C(OC(=O)c2ccc[nH]2)C(O)(C(C)C)C41C (stereo not drawn)", 7.57]
]}

The compound identified as C=C1CCC2(O)C3(C)CC4(O)OC2(C1OC(=O)CCNC(=O)c1ccccc1)C1(O)C3(O)C(OC(=O)c2ccc[nH]2)C(O)(C(C)C)C41C (stereo not drawn) registered its pKd at 8.09

Record CC1CCC2(O)C3(C)CC4(O)OC2(C1OC(=O)CNC(=O)OCc1ccccc1)C1(O)C3(O)C(OC(=O)c2ccc[nH]2)C(O)(C(C)C)C41C (stereo not drawn) . Reported pKd: 8.18

pKd for CC1CCC2(O)C3(C)CC4(O)OC2(C1OC(=O)CCNC(=O)OCc1ccccc1)C1(O)C3(O)C(OC(=O)c2ccc[nH]2)C(O)(C(C)C)C41C (stereo not drawn) is 8.40

For record C=C1CCC2(O)C3(C)CC4(O)OC2(C1OC(=O)CCNC(=O)c1ccc(OCCCC)cc1)C1(O)C3(O)C(OC(=O)c2ccc[nH]2)C(O)(C(C)C)C41C (stereo not drawn) the listed pKd is 8.01

# pKd (compound: CC1CCC2(O)C3(C)CC4(O)OC2(C1OC(=O)CCN)C1(O)C3(O)C(OC(=O)c2ccc[nH]2)C(O)(C(C)C)C41C (stereo not drawn) [V-II, O10eq -β-Alanyl-Ryanodine] ) is 9.00

###

# TARGET: ryanodine receptor (skeletal sarcoplasmic reticulum membrane vesicles) (Oryctolagus cuniculus, UniProt P11716)
# Construct: skeletal sarcoplasmic reticulum membrane vesicles; from tissue; host or cells: skeletal muscle sarcoplasmic reticulum membrane vesicles
# PROTOCOL TEXT: biochemical
# Assay type: binding
# CONDITION DESCRIPTION: first embodiment; read-out: KD
ASSAY READOUT: log10 Kd (log10 of the value in nM)
Remember, log10 of Kd, in nM.

Worked set:
{"columns": ["MOLECULE", "log10 Kd"],
 "data": [
  ["CC1CCC2(O)C3(C)CC4(O)OC2(C1OC(=O)CCNC(=O)c1cc(N=[N+]=[N-])ccc1[N+](=O)[O-])C1(O)C3(O)C(OC(=O)c2ccc[nH]2)C(O)(C(C)C)C41C (centres unmarked) [VI]", 1.10],
  ["C=C1CCC2(O)C3(C)CC4(O)OC2(C1OC(=O)CCNC(=O)c1ccc(OCCCC)cc1)C1(O)C3(O)C(OC(=O)c2ccc[nH]2)C(O)(C(C)C)C41C (centres unmarked) [XIII]", 0.78],
  ["CC1CCC2(O)C3(C)CC4(O)OC2(C1OC(=O)CCN)C1(O)C3(O)C(OC(=O)c2ccc[nH]2)C(O)(C(C)C)C41C (stereo not drawn) [V-II, O10eq -β-Alanyl-Ryanodine]", 0.00],
  ["CC1CCC2(O)C3(C)CC4(O)OC2(C1OC(=O)CCNC(=O)CCCCC1SCC2NC(=O)NC21)C1(O)C3(O)C(OC(=O)c2ccc[nH]2)C(O)(C(C)C)C41C (stereo not drawn) [XIV, O10eq -N-Biotinlyl-β-Alanyl-Ryanodine]", 1.40]
]}

Turning to the following molecule.
// sample CC1=C(C(C)C)C(OC(=O)c2ccc[nH]2)C2(O)C3(C)CC(=O)OC4(C(OC(=O)CCN)C(C)CCC34O)C12O (stereo not drawn) [V-I, O10eq -β-Alanyl-Anhydroryanodine] , its log10 Kd was 1.57

###

# TARGET: Sarcoplasmic Reticular Ca^++ -Release Channel (ryanodine receptor) (Oryctolagus cuniculus)
# Construct: skeletal sarcoplasmic reticulum membrane vesicles; from tissue; host or cells: skeletal muscle sarcoplasmic reticulum membrane vesicles
# Sequence (P11716 whole entry): as above
# PROTOCOL TEXT: biochemical
# Type: binding
# CONDITION DESCRIPTION: Table II; more highly purified standards; read-out: IC50 (nM) ± S.D.
ASSAY READOUT: log10(IC50) (log10 of the value in nM)
# values: log10(IC50), units nM

{"columns": ["MOLECULE", "log10(IC50)"],
 "data": [
  ["CC1CCC2(O)C3(C)CC4(O)OC2(C1OC(=O)CCNC(=NC(=O)OCc1ccccc1)NC(=O)OCc1ccccc1)C1(O)C3(O)C(OC(=O)c2ccc[nH]2)C(O)(C(C)C)C41C (stereo not drawn)", 1.64],
  ["C=C1CCC2(O)C3(C)CC4(O)OC2(C1OC(=O)CCN)C1(O)C3(O)C(OC(=O)c2ccc[nH]2)C(O)(C(C)C)C41C (stereo not drawn) [XXVI, O10eq -β-Alanyl-Dehydroryanodine]", 0.53],
  ["CC1CCC2(O)C3(OC4(O)C[C@]2(C)C2(O)[C@H](OC(=O)c5ccc[nH]5)C(O)(C(C)C)C4(C)C32O)[C@@H]1OC(=O)CN=C(N)N (stereo partly drawn) [XXIV, O10eq -Guanidinoacetyl-Ryanodine]", 0.26],
  ["CC1CCC2(O)C3(C)CC4(O)OC2(C1OC(=O)CN)C1(O)C3(O)C(OC(=O)c2ccc[nH]2)C(O)(C(C)C)C41C (stereo not drawn) [XXII, O10eq -glycyl-ryanodine]", 0.26],
  ["C=C1CCC2(O)C3(C)CC4(O)OC2(C1OC(=O)CCNC(=O)OCc1ccccc1)C1(O)C3(O)C(OC(=O)c2ccc[nH]2)C(O)(C(C)C)C41C (stereo not drawn) [XXV, O10eq -CBZ-β-Alanyl-Dehydroryanodine]", 0.65]
]}

Lab note: next molecule to report on.
The reported log10(IC50) of the molecule CC1CCC2(O)C3(C)CC4(O)OC2(C1OC(=O)CCNC(=N)N)C1(O)C3(O)C(OC(=O)c2ccc[nH]2)C(O)(C(C)C)C41C (stereo not drawn) [XXI, O10eq -β-Guanidinopropionyl-Ryanodine] was 0.04
